Quick list: pKd per entry.
# target.or.system: biotinylated human DLL3 protein expressed as a human IgG1 fusion protein (human) (UniProt Q9NYJ7)
# Sequence (Q9NYJ7 other isoform, or with tags, fused parts or gaps): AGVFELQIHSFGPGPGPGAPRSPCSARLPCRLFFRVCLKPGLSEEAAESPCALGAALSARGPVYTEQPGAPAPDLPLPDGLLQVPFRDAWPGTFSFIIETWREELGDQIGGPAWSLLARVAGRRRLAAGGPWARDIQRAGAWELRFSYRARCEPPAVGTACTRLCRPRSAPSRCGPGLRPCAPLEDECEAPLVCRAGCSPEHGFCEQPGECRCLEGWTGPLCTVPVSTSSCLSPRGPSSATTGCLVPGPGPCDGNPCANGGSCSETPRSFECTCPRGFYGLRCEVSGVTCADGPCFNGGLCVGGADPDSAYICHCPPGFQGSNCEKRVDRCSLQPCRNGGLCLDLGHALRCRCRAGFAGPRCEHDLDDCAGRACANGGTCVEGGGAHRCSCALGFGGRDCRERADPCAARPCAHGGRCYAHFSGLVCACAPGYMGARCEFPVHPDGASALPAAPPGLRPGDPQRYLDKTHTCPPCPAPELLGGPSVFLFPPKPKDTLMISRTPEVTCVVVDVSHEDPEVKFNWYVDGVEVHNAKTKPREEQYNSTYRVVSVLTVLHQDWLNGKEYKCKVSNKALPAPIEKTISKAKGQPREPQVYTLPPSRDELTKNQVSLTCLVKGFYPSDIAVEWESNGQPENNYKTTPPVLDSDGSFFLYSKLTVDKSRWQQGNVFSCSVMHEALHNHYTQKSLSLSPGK
# procedure.summary: Octet BLI; biotinylated huDLL3-IgG1 fusion on streptavidin tips; single 50 nM; conditioned medium
Answer as the number alone; pKd is minus log10 of concentration in mol/L.

binder: anti-DLL3 trispecific protein 3H01 (protein, part only; not given: CD3 binder and albumin binder, part only) chain, part: EVQLVESGGGLVQPGGSLTLSCVASGSSVKFLSMAWYRQAPGKKRELVAGISGDGSTTYIDSVKGRFTISRDNAKNSVYLQMNSLRAEDTAVYYCYAYRWTTRRTYWGQGTLVTVSSGGGGSGGGSGGGGSGGGSHHHHHH
pKd: 8.05
//
binder: anti-DLL3 trispecific protein 1C02 (protein, part only; not given: anti-CD3 fragment and anti-albumin sdAb, part only) chain, part: EVQLVESGGGLVQPGGSLTLSCVASGSTSSINAMAWYRRAPGKQRELVAGISSDGSKVYSDSVKGRFTISRDNAKNSVYLQMNSLRAEDTAVYYCYYFRTVSGSSMRSWGQGTLVTVSSGGGGSGGGSGGGGSGGGSHHHHHH
pKd: 8.21
//
binder: anti-DLL3 trispecific protein 4E09 (protein, part only; not given: anti-CD3 fragment and anti-albumin sdAb, part only) chain, part: EVQLVESGGGLVQPGGSLTLSCAASGSSVSFLSSAWYRQAPGKKRELVAGISADGSTLYIDSVKGRFTISRDNAKNSVYLQMNSLRAEDTAVYYCYAYRWTTRSTYWGQGTLVTVSSGGGGSGGGSGGGGSGGGSHHHHHH
pKd: 8.04
//
binder: anti-DLL3 trispecific protein 1G07 (protein, part only; not given: anti-CD3 and anti-albumin domains, part only) chain, part: EVQLVESGGGLVQPGGSLTLSCVASGSTSSINAMGWYRRAPGKQRELVAGISSDGSKVVADSVKGRFTISRDNAKNSVYLQMNSLRAEDTAVYYCYYFRTYSGSSMRYWGQGTLVTVSSGGGGSGGGSGGGGSGGGSHHHHHH
pKd: 8.08
//
binder: anti-DLL3 trispecific protein 1C03 (protein, part only; not given: anti-CD3 and anti-albumin domains, part only) chain, part: EVQLVESGGGLVQPGGSLTLSCVASGSTSSINAMAWYRRAPGKQRELVAGISSDNSKVYADSVKGRFTISRDNAKNSVYLQMNSLRAEDTAVYYCYYFRTVGGSSMRYWGQGTLVTVSSGGGGSGGGSGGGGSGGGSHHHHHH
pKd: 8.21

Q: Could you tell me which pKd is on file for anti-DLL3 trispecific protein 2D012 (protein, part only; not given: anti-CD3 fragment and anti-albumin sdAb, part only) chain, part: EVQLVESGGGLVQPGGSLTLSCVASGKTSSINAMGWYRRAPGKQRELVAGISSDGSKVYTDSVKGRFTISRDNAKNSVYLQMNSLRAEDTAVYYCYYFRTRSGSSMRYWGQGTLVTVSSGGGGSGGGSGGGGSGGGSHHHHHH ?
Result: 8.31

Q: Another binder: anti-DLL3 trispecific protein 4C06 (protein, part only; not given: CD3 fragment and albumin sdAb, part only) chain, part: EVQLVESGGGLVQPGGSLTLSCAASNSSVSKLSMAWYRQAPGKKRELVAGISADGSTAYIDSVKGRFTISRDNAKNSVYLQMNSLRAEDTAVYYCYAYRWSTRYTYWGQGTLVTVSSGGGGSGGGSGGGGSGGGSHHHHHH
Result: 8.17
